- Test system: Staphylococcus epidermidis
- EXPERIMENTAL DETAILS: Antibacterial activity against methicillin-resistant Staphylococcus epidermidis 16-5 by agar method
- Type: functional
Listing: MIC of selected compounds
Give the number; µg/mL is assumed, so skip it.

Consider the following illustrative entries.
COMPOUND	MIC / µg/mL
O=C(/C=C/c1ccc2c(C(F)(F)F)cccc2n1)c1cccnc1	2
O=C(/C=C/c1ccc2c(C(F)(F)F)cccc2n1)c1ccccn1	2
C[C@H]1COc2c(N3CCN(C)CC3)c(F)cc3c(=O)c(C(=O)O)cn1c23.C[C@H]1COc2c(N3CCN(C)CC3)c(F)cc3c(=O)c(C(=O)O)cn1c23.O [LEVOFLOXACIN]	8
C[n+]1cccc(C(=O)/C=C/c2ccc3ccc(C(F)(F)F)cc3n2)c1.[I-]	64
O=C(/C=C/c1ccccn1)c1ccc2ccccc2c1	2
O=C(/C=C/c1ccc2ncccc2c1)c1ccccn1	8

Alright, here's another compound for you.
[Q] State the recorded MIC for this entry: O=C(/C=C/c1ccc2ccc(C(F)(F)F)cc2n1)c1cccnc1
[A] 2
